Tested on: Human alphaherpesvirus 2
Experiment: Effective concentration required to inhibit replication of strain G of HSV-2 by 90%
Assay type: functional
The following compounds are listed with their measured ED90 values.
Please respond with the number in µM and leave the unit unwritten.

Answered examples (5):
> print(dat)
                                   compound         target.under.test  numeric.readout
1  Cc1cn([C@@H]2O[C@H](CO)C(O)C2F)c(=O)[nH]c1=O (single isomer, unassigned) [5-METHYL-2'-FLUOROARAURACIL]  Human alphaherpesvirus 2             0.09
2  CC1O[C@@H](n2ccc(N)nc2=O)[C@H](F)[C@H]1O (some centres undefined)  Human alphaherpesvirus 2             45.5
3  CC1O[C@@H](n2cc(I)c(=O)[nH]c2=O)[C@H](F)[C@H]1O (some centres undefined)  Human alphaherpesvirus 2              290
4  Nc1nc(=O)n([C@@H]2O[C@H](CO)C(O)C2F)cc1I (single isomer, unassigned) [FIACITABINE]  Human alphaherpesvirus 2             0.08
5  Cc1cn([C@@H]2OC(C)[C@H](O)[C@H]2F)c(=O)[nH]c1=O (some centres undefined)  Human alphaherpesvirus 2              493

Below: the item to evaluate.
So for O=c1[nH]c(=O)n([C@@H]2O[C@H](CO)C(O)C2F)cc1I (single isomer, unassigned) [FIALURIDINE] , the logged ED90 turned out to be 0.045

====

Tested on: Human alphaherpesvirus 2
Experiment: Effective concentration required to inhibit replication of strain G of HSV-2 by 90%
Format: functional
OBSERVABLE: ED90 (µM)
Only the number, expressed in µM, is required.

compound CC1O[C@@H](n2ccc(=O)[nH]c2=O)[C@H](F)[C@H]1O (some centres undefined) , ED90 observed: 379

In plain terms, Cc1cn([C@@H]2OC(CN)[C@H](O)[C@H]2F)c(=O)[nH]c1=O (some centres undefined) has a documented ED90 of 14

====

Tested on: Human alphaherpesvirus 2
Experiment: Effective concentration required to inhibit replication of strain G of HSV-2 by 90%
Assay type: functional
OBSERVABLE: ED90

Consider the following illustrative entries.
> print(dat)
                                   compound  observable   result
1  NCC1O[C@@H](n2cc(I)c(=O)[nH]c2=O)[C@H](F)[C@H]1O (stereo partly drawn)        ED90  >200 µM
2  Cc1cn([C@@H]2OC(CS)[C@H](O)[C@H]2F)c(=O)[nH]c1=O (stereo partly drawn)        ED90  >200 µM

# context switch: different compound, same ED90
Reported ED90 of Nc1nc(=O)n([C@@H]2OC(CS)[C@H](O)[C@H]2F)cc1I (stereo partly drawn) : >200 µM
